- Test system: HCC1954
- METHOD_DESCRIPTION: Viability assay, BRCA1 WT cell line HCC1954
- Type: cell-based
- REPORTED_CONDITIONS: Homo sapiens, HCC1954, viability, read-out: HCC1954 rel IC50
REPORTED_PROPERTY: IC50

| SMILES_CODE | MEASURED_TARGET | RECORDED_MEASUREMENT |
| --- | --- | --- |
| Cn1c(=N)n(Cc2ccc(-c3nc(C(F)(F)F)c[nH]3)c(F)c2)c2nc(-c3ccccc3C(F)(F)F)ncc21 | HCC1954 | 0.25 to 10 µM |
| Cn1cc(C(F)(F)F)nc1-c1cc(F)c(Cn2c(=N)n(C)c3cnc(-c4ccccc4C(F)(F)F)nc32)c(F)c1 | HCC1954 | ≥ 10 µM |
| Cn1cc(C(F)(F)F)nc1-c1ccc(Cn2c(=N)n(C)c3cnc(-c4cccnc4CC(F)(F)F)nc32)cc1 | HCC1954 | ≥ 10 µM |
| COc1ncnc(C2CC2)c1-c1ncc2c(n1)n(Cc1ccc(-n3nc(C(F)(F)F)cc3OC)cc1)c(=N)n2CC(F)F | HCC1954 | ≥ 10 µM |
